- targetSystem: TBK1 (Homo sapiens)
- Sequence (Q9UHD2 1-729): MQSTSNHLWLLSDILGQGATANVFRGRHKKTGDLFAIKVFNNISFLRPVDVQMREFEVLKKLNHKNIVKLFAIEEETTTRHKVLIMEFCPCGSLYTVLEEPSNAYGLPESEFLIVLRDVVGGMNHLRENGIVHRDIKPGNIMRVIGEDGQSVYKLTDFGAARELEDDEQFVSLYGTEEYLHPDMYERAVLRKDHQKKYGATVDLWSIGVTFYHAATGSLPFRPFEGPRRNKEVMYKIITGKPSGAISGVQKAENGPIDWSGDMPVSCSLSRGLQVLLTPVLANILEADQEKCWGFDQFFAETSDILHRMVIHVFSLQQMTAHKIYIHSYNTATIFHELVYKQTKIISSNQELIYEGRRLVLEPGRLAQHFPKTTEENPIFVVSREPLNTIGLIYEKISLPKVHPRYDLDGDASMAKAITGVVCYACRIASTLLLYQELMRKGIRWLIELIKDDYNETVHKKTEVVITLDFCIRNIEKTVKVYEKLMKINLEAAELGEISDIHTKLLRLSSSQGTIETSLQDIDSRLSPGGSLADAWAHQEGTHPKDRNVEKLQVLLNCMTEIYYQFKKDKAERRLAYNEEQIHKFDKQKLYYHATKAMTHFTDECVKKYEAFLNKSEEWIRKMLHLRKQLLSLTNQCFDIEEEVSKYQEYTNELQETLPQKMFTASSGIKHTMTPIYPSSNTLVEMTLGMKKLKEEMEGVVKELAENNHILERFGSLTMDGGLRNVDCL
- method: TBK Biochemical Assay
- setupConditions: TBK1 IC50
pIC50: −log10 of the molar value.
reportedMetric: pIC50

Param item = COc1cc(C(=O)NC2CN3CCC2CC3)ccc1-c1cc2nccc(-c3ccc(NC4C5COCC54)c(C#N)c3)c2o1 (stereo not shown) [Compound 119] ; retrieve measured pIC50. > 7.00

---

- targetSystem: IKKε (Homo sapiens, UniProt Q14164)
- Sequence (Q14164 whole entry, species assumed): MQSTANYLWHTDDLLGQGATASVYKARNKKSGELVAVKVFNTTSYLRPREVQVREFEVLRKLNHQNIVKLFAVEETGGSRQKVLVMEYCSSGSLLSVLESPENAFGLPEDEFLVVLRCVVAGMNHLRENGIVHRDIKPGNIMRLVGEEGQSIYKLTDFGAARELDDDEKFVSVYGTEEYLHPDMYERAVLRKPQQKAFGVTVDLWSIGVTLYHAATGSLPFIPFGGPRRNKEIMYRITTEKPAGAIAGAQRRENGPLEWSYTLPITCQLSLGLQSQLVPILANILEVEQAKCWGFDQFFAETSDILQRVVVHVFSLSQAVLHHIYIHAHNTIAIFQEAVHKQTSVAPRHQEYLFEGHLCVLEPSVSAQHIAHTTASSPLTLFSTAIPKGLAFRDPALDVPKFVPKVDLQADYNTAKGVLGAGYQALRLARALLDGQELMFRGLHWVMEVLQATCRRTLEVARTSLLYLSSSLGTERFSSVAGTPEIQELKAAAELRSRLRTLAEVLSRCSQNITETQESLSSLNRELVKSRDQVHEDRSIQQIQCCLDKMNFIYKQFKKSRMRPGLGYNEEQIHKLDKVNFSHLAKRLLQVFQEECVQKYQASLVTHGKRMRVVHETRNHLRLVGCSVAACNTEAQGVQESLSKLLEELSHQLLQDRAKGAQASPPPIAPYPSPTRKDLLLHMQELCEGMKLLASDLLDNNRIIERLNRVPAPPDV
- method: IKKe Biochemical Assay
- setupConditions: read-out: IKKε IC50
Structures can show the parent of a compound that is named as a salt.
reportedMetric: IC50

Completed entries (count: 3):
molecule	reportedMetric	observedValue
COc1nc(C(=O)N(C)C)ccc1-c1cc2nccc(-c3ccc(OC4CCOCC4)c(C#N)c3)c2o1 [Compound 271]	IC50	< 0.1 µM
COc1cc(C(=O)N(C)C2CN3CCC2CC3)ccc1-c1cc2nccc(-c3ccc(OC4CCOCC4)c(C#N)c3)c2o1 (centres unmarked) [Compound 472]	IC50	< 0.1 µM
COc1cc(C(=O)N(C)C)ccc1-c1cc2nccc(-c3ccc(C4(N5CCOCC5)CC4)c(C#N)c3)c2o1 [Compound 292, hydrochloride]	IC50	0.1 to 1 µM

Hi, could you look up IC50 for each item in my list?
1. N#Cc1cc(-c2ccnc3cc(-c4ccc(C(=O)O)cc4)oc23)ccc1Oc1cccnc1 [Compound 186]
2. COc1cc(C(=O)N2CCC(CO)CC2)ccc1-c1cc2nccc(-c3ccc(N4CC[C@H](F)C4)c(C#N)c3)c2o1 [Compound 70]
3. COc1cc(C(=O)N2C3CCC2COC3)ccc1-c1cc2nccc(-c3ccc(NC4CCOCC4)c(C#N)c3)c2o1 [Compound 94]
4. COc1cc(C(=O)N(C)C)ccc1-c1cc2nccc(-c3ccc(OC4CCN(C(C)=O)CC4)c(C#N)c3)c2o1 [Compound 112]
5. COc1cc(C(=O)N2CCN(C)CC2)ncc1-c1cc2nccc(-c3ccc(N4CC[C@H](F)C4)c(C#N)c3)c2o1 [Compound 463]
6. COc1cc(C(=O)N(C)C)ccc1-c1cc2nccc(-c3ccc(OC4CCN(C)CC4(F)F)c(C#N)c3)c2o1 (centres unmarked) [Compound 97]
7. COC(=O)c1ccc(-c2cc3nccc(-c4ccc(OC5CC6(COC6)C5)c(C#N)c4)c3o2)cc1 [Compound 204]

1. 0.1 to 1 µM
2. < 0.1 µM
3. < 0.1 µM
4. < 0.1 µM
5. < 0.1 µM
6. < 0.1 µM
7. 0.1 to 1 µM

Count: 3. Required value per item: IC50.
1. COc1cc(C(=O)NC2CCN(C(=O)OC(C)(C)C)C2)ccc1-c1cc2nccc(-c3ccc(OC4CCOCC4)c(C#N)c3)c2o1 (centres unmarked) [Compound 125]
2. COc1cc(C(=O)N2CC3CN(C)CC3C2)ccc1-c1cc2nccc(-c3ccc(NC4CCOCC4)c(C#N)c3)c2o1 (centres unmarked) [Compound 73]
3. COc1cc(C(=O)N2CCCCC2CO)ccc1-c1cc2nccc(-c3ccc(OC4CCOCC4)c(C#N)c3)c2o1 (centres unmarked) [Compound 10]

1. < 0.1 µM
2. < 0.1 µM
3. < 0.1 µM

Entry COc1cc(C(=O)N[C@@H]2CCNC[C@@H]2F)ccc1-c1cc2nccc(-c3ccc(NC4CCOCC4)c(C#N)c3)c2o1 (single isomer, unassigned) [Compound 251, hydrochloride] : reported IC50 = ? < 0.1 µM
